B1: Homeobox protein cut-like 1, residues 941 to 1008; numbered along this chain, P39880 (parent)
chain: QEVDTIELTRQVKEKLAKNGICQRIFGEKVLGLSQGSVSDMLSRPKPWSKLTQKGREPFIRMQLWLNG

Variants of: B1
Experiment: abundance fitness (aPCA) (normalised: wild type 0, dead -1); higher = more abundant; growth selection in yeast, the domain comes from the species named
Conditions: Homo sapiens
property_label: abundance fitness

variant_description=E2D property_label="abundance fitness" observed_result=-0.283
variant_description=S49F property_label="abundance fitness" observed_result=-0.19
variant_description=N19T property_label="abundance fitness" observed_result=0.034
variant_description=S43Y property_label="abundance fitness" observed_result=-0.174
variant_description=Q23M property_label="abundance fitness" observed_result=-0.195
variant_description=V3F property_label="abundance fitness" observed_result=-0.063
variant_description=K15L property_label="abundance fitness" observed_result=-0.057
variant_description=Q23Y property_label="abundance fitness" observed_result=-0.162
variant_description=L8A property_label="abundance fitness" observed_result=0.051
variant_description=R24F property_label="abundance fitness" observed_result=-0.362
variant_description=K50F property_label="abundance fitness" observed_result=-0.141
variant_description=Q11H property_label="abundance fitness" observed_result=-0.114
variant_description=T9S property_label="abundance fitness" observed_result=-0.149
variant_description=E14K property_label="abundance fitness" observed_result=-0.111
variant_description=A17F property_label="abundance fitness" observed_result=-0.116
variant_description=W48T property_label="abundance fitness" observed_result=-1.1
variant_description=G32V property_label="abundance fitness" observed_result=-0.645
variant_description=R24P property_label="abundance fitness" observed_result=-0.559
variant_description=L31F property_label="abundance fitness" observed_result=-0.11
variant_description=G36I property_label="abundance fitness" observed_result=-0.078
variant_description=M41E property_label="abundance fitness" observed_result=-0.335
variant_description=L31Y property_label="abundance fitness" observed_result=-0.351
variant_description=Q1L property_label="abundance fitness" observed_result=-0.218
variant_description=K46G property_label="abundance fitness" observed_result=-0.315
variant_description=P45I property_label="abundance fitness" observed_result=-0.147
variant_description=R24W property_label="abundance fitness" observed_result=-0.144
variant_description=R10Q property_label="abundance fitness" observed_result=-0.135
variant_description=S49H property_label="abundance fitness" observed_result=0.025
variant_description=L31E property_label="abundance fitness" observed_result=-0.486
variant_description=K13P property_label="abundance fitness" observed_result=-0.159
variant_description=T52G property_label="abundance fitness" observed_result=-0.216
variant_description=G32Y property_label="abundance fitness" observed_result=-0.415
variant_description=S49A property_label="abundance fitness" observed_result=-0.072
variant_description=S43G property_label="abundance fitness" observed_result=-0.251
variant_description=L31R property_label="abundance fitness" observed_result=-0.15
variant_description=W48E property_label="abundance fitness" observed_result=-0.774
variant_description=N19P property_label="abundance fitness" observed_result=0.043
variant_description=K50E property_label="abundance fitness" observed_result=0.022
